molecular target: Solute carrier family 2, facilitated glucose transporter member 1 (Homo sapiens) (UniProt P11166); assay: ST_JUDE_LEISH: Cytotoxicity at 2uM final concentration against transgenic Leishmania Mexicana promastigotes LmGLUT1 that are glucose transport deficient and complemented with the human glucose transporter GLUT1. Activity is measured by DNA content using SYBR green in vitro; format: functional
Sequence (P11166 whole entry): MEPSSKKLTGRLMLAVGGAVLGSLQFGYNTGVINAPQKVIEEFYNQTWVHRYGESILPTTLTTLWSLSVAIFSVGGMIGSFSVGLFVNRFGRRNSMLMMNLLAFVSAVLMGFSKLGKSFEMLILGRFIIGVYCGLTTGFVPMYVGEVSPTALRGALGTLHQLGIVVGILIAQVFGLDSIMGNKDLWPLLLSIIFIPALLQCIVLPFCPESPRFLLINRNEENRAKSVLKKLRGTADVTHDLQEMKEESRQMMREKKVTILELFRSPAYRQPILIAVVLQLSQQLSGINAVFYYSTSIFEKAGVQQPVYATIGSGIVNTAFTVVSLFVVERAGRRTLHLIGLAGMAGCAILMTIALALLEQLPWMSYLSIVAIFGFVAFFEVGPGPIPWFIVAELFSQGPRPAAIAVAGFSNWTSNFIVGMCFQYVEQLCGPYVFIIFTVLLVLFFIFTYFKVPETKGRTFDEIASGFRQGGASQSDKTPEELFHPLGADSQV
endpointName: inhibition (%)
Number in %, nothing else.

{"compound": "Fc1ccc2[nH]c(-c3ccc(-c4ccc(CN5CCN(CCN6CCOCC6)CC5)cc4)s3)nc2c1", "measurementUnit": "%", "inhibition": 6.46}
{"compound": "Oc1ccc(CCNc2nc(NCc3ccccc3-c3ccc(F)cc3)nc(N3CCNCC3)n2)cc1", "measurementUnit": "%", "inhibition": -6.17}
{"compound": "O=C(Nc1ccc(-c2nc3ccccc3[nH]2)cc1)c1ccc(Cl)s1", "measurementUnit": "%", "inhibition": 3.19}
{"compound": "Cc1cc(Nc2ccc(Cl)cc2)n2nc(C(F)(F)F)nc2n1", "measurementUnit": "%", "inhibition": 0.02}
{"compound": "CCOc1c(Cl)cc(Cl)cc1CNCCCNc1nc2ccccc2[nH]1", "measurementUnit": "%", "inhibition": 1.3}
{"compound": "CNC(=O)COC(=O)c1c2c(nc3ccccc13)C(=Cc1ccc3c(c1)OCO3)CCC2", "measurementUnit": "%", "inhibition": 1.88}
{"compound": "COc1ccc(F)cc1-c1ccc(C(=O)N2CCCN(c3ccc(C#N)cn3)CC2)cc1", "measurementUnit": "%", "inhibition": 0.86}
{"compound": "COc1cccc(-c2ccc(O)c(CNCCc3cccc(F)c3)c2)n1", "measurementUnit": "%", "inhibition": -0.7}
{"compound": "COc1ccc(C2CC(=O)C3=C(C2)NC(C)=C(C(=O)OC2CCCC2)C3c2cccc(O)c2)cc1OC (centres undefined)", "measurementUnit": "%", "inhibition": 4.21}
{"compound": "CN(c1ccc2c(c1)nc(NCc1ccc(F)cc1)n2C)c1ccnc(Nc2ccc(CS(C)(=O)=O)cc2)n1", "measurementUnit": "%", "inhibition": -0.61}

inhibition lookup needed for "Cc1cc(CN2C(=O)C(c3ccccc3)(c3ccccc3)N=C2N)c(C(F)(F)F)o1" , thanks.
6.61

inhibition lookup needed for Cc1ccc2c(c1)NCC21CCN(C[C@@H](O)C2CCN(c3cc(C#N)ccn3)CC2)CC1C (some centres undefined) , thanks.
-1.68

inhibition lookup needed for "O=C(NC1CCN(Cc2ccccc2)CC1)c1ccc(-c2nc3cc(Cl)c(F)cc3[nH]2)cc1" , thanks.
1.14

inhibition lookup needed for Cc1cccc2nc(-c3ccc(-c4cccc(CNCC5CCCO5)c4)s3)[nH]c12 (centres undefined) , thanks.
13

inhibition lookup needed for "O=C(Nc1ccc(Cl)c(C(F)(F)F)c1)c1ccc(Cl)c([N+](=O)[O-])c1" , thanks.
6.41
